The measured values listed here are drawn from patent US11807625B2.

- ASSAY: PK of compound of Formula (Ia) after single subcutaneous dose of solution formulations in Wistar Han rats
- Type: in vivo
- ASSAY SETUP: male, Wistar Han, rat, plasma, sc, 50 mg/kg, 840 h; mean, n = 3 rats; SC 50 mg/kg; solution R, 400 mg/mL
- Experimental: Formulations containing the compound of Formula (Ia), or a pharmaceutically acceptable salt thereof, were prepared as solutions and optionally administered subcutaneously or intramuscularly to rats, rabbits, and/or dogs. A solution of about 400 mg/mL of the compound of Formula (Ia) having 19.14 w/w % water, 40.66 w/w % PEG 300, 35.20 w/w % of a sodium salt of a compound of Formula (Ia), and 5.00% ethanol was prepared. […]
RECORDED METRIC: concentration at 840 h

Task: Answer with the recorded concentration at 840 h for the compound listed here: CC(C)(C#Cc1ccc(-c2ccc(Cl)c3c(NS(C)(=O)=O)nn(CC(F)(F)F)c23)c([C@H](Cc2cc(F)cc(F)c2)NC(=O)Cn2nc(C(F)(F)F)c3c2C(F)(F)[C@@H]2C[C@H]32)n1)S(C)(=O)=O
Result: 350 nM

----------
- ASSAY: PK of compound of Formula (Ia) after single intramuscular dose of solution formulations in Wistar Han rats
- Format: in vivo
- ASSAY SETUP: male, Wistar Han, rat, plasma, intramuscular, 100 mg/kg, Solution H (~400 mg/mL); IM 100 mg/kg; Wistar Han rats; mean, n = 4; 8.00 h; read-out: Plasma concentration, Mean
RECORDED METRIC: concentration at 8 h (nM)
All answers are understood in nM, so give the number only.

Task: Answer with the recorded concentration at 8 h for the compound listed here: CC(C)(C#Cc1ccc(-c2ccc(Cl)c3c(NS(C)(=O)=O)nn(CC(F)(F)F)c23)c([C@H](Cc2cc(F)cc(F)c2)NC(=O)Cn2nc(C(F)(F)F)c3c2C(F)(F)[C@@H]2C[C@H]32)n1)S(C)(=O)=O
Result: 285

----------
- ASSAY: PK of compound of Formula (Ia) after single subcutaneous dose of solution formulations in beagle dogs
- Format: in vivo
- ASSAY SETUP: male, beagle, dog, plasma, sc, 12 mg/kg, male beagle dogs, single SC 12 mg/kg, 400 mg/mL solution Y (water, PEG 300), mean ± SD, n = 3; read-out: AUC0-3024 h
RECORDED METRIC: AUC(0-t) (µM·h)
All answers are understood in µM·h, so give the number only.

Task: Answer with the recorded AUC(0-t) for the compound listed here: CC(C)(C#Cc1ccc(-c2ccc(Cl)c3c(NS(C)(=O)=O)nn(CC(F)(F)F)c23)c([C@H](Cc2cc(F)cc(F)c2)NC(=O)Cn2nc(C(F)(F)F)c3c2C(F)(F)[C@@H]2C[C@H]32)n1)S(C)(=O)=O [compound of Formula (Ia)]
Result: 207

----------
- ASSAY: PK of compound of Formula (Ia) after single subcutaneous dose of solution formulations in Wistar Han rats
- Format: in vivo
- ASSAY SETUP: male, Wistar Han, rat, plasma, sc, 50 mg/kg, Wistar Han rats, SC 50 mg/kg, 400 mg/mL solution Y (water, PEG 300), 24.0 h, Mean n = 4
RECORDED METRIC: concentration at 24 h (nM)
All answers are understood in nM, so give the number only.

Task: Answer with the recorded concentration at 24 h for the compound listed here: CC(C)(C#Cc1ccc(-c2ccc(Cl)c3c(NS(C)(=O)=O)nn(CC(F)(F)F)c23)c([C@H](Cc2cc(F)cc(F)c2)NC(=O)Cn2nc(C(F)(F)F)c3c2C(F)(F)[C@@H]2C[C@H]32)n1)S(C)(=O)=O
Result: 93.2
